Test System: 5-HT1A receptor (Homo sapiens (Human))
Test: FLIPR Ca^2+ flux agonist assay at 5-HT1A
Format: cell-based
Conditions: CHO cells
Quantity Kind: 5-HT1A % Act @ Max Dose (%)
# output: bare number, implied unit %

What value of measured 5-HT1A % Act @ Max Dose is listed for CCCN1C[C@H](C(=O)N2[C@@H](C)C[C@@H]2C)C=C2c3cccc4[nH]cc(c34)C[C@H]21 ?
123.1

Give the measured 5-HT1A % Act @ Max Dose of CCC[C@@H](C)NC(=O)[C@@H]1C=C2c3cccc4[nH]cc(c34)C[C@H]2N(CCC)C1 .
107.16

Using the record for CCN(CC)C(=O)[C@@H]1C=C2c3cccc4[nH]cc(c34)C[C@H]2N(CC2CC2)C1 , report its 5-HT1A % Act @ Max Dose.
83.08

Value lookup for 5-HT1A % Act @ Max Dose; key = CCC[C@@H](C)NC(=O)[C@H]1C=C2c3cccc4[nH]cc(c34)C[C@H]2N(C)C1 [Int17a]
88.52

---

Test System: 5-HT2A receptor (Homo sapiens (Human), UniProt P28223)
Type: cell-based
Conditions: beta-arrestin recruitment
Quantity Kind: agonist type in the 5-HT2A arrestin recruitment assay, in words

C=CCN1C[C@H](C(=O)N[C@H](C)CC)C=C2c3cccc4[nH]cc(c34)C[C@H]21 | full agonists
CC[C@@H](C)NC(=O)[C@@H]1C=C2c3cccc4[nH]cc(c34)C[C@H]2N(CC)C1 | full agonists
CCC[C@@H](C)NC(=O)[C@@H]1C=C2c3cccc4[nH]cc(c34)C[C@H]2N(CCC)C1 | full agonists
CCC[C@@H](C)NC(=O)[C@@H]1C=C2c3cccc4[nH]cc(c34)C[C@H]2N(C)C1 | partial agonists
CCN(CC)C(=O)[C@@H]1C=C2c3cccc4[nH]cc(c34)C[C@H]2N(CCCF)C1 | full agonists
C[C@H]1C[C@H](C)N1C(=O)[C@@H]1C=C2c3cccc4[nH]cc(c34)C[C@H]2N(C)C1 | partial agonists
CC[C@@H](C)NC(=O)[C@@H]1C=C2c3cccc4[nH]cc(c34)C[C@H]2N(C)C1 | partial agonists

Next item in the queue.
Which agonist type in the 5-HT2A arrestin recruitment assay, in words is reported for this compound? CCCN1C[C@H](C(=O)NC(CC)CC)C=C2c3cccc4[nH]cc(c34)C[C@H]21
full agonists

---

Test System: 5-HT2B receptor (Homo sapiens (Human))
Sequence (P41595 whole entry, looked up): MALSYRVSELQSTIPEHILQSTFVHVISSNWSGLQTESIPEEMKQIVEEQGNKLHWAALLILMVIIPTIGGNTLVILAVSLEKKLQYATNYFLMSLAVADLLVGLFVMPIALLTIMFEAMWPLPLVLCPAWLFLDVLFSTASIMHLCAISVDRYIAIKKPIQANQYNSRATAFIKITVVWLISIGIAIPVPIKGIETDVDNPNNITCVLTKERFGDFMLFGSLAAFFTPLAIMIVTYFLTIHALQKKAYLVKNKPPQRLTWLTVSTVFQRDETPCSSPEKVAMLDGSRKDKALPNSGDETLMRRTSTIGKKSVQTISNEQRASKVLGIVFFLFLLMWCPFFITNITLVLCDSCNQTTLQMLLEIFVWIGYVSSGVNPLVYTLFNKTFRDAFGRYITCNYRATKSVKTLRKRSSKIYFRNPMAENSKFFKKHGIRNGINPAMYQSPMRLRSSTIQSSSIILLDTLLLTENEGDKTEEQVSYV
Test: FLIPR Ca^2+ flux agonist assay at 5-HT2B
Assay type: cell-based
Conditions: HEK293
Assign classes using reported 5-HT2B % Act @ Max Dose values and the ranges interval 1 (below 10%), interval 2 (10% to below 40%), interval 3 (40% or more), please.

For the record C=CCN1C[C@H](C(=O)N[C@H](C)CC)C=C2c3cccc4[nH]cc(c34)C[C@H]21 [Compound 8] , report the class its 5-HT2B % Act @ Max Dose corresponds to.
interval 3

Which class is correct for the following compound? CCCN1C[C@H](C(=O)N2[C@@H](C)C[C@@H]2C)C=C2c3cccc4[nH]cc(c34)C[C@H]21 [Compound 4]
interval 3

Determine which band this compound sits in: CCN(CC)C(=O)[C@@H]1C=C2c3cccc4[nH]cc(c34)C[C@H]2N(Cc2ccccc2OC)C1 [Compound 10]
interval 1

Which band does CCC[C@@H](C)NC(=O)[C@@H]1C=C2c3cccc4[nH]cc(c34)C[C@H]2N(CCC)C1 [Compound 7] fall in?
interval 3

Any idea which band CCN(CC)C(=O)[C@@H]1C=C2c3cccc4[nH]cc(c34)C[C@H]2N(Cc2cccc(OC)c2)C1 [Compound 18] is in?
interval 1

Field: class (5-HT2B % Act @ Max Dose) — entry: CCN(CC)C(=O)[C@@H]1C=C2c3cccc4[nH]cc(c34)C[C@H]2N(CCCF)C1 [Compound 2]
interval 3

Quick check: band for CCN(CC)C(=O)[C@@H]1C=C2c3cccc4[nH]cc(c34)C[C@H]2N(CCc2cccc(OC)c2)C1 [Compound 20]
interval 1

Class label required: C[C@H]1C[C@H](C)N1C(=O)[C@@H]1C=C2c3cccc4[nH]cc(c34)C[C@H]2N(C)C1 [Int11]
interval 2

Lab note: which band did CCN(CC)C(=O)[C@@H]1C=C2c3cccc4[nH]cc(c34)C[C@H]2N(CCc2ccccc2OC)C1 [Compound 11] land in?
interval 1

Record CCN(CC)C(=O)[C@@H]1C=C2c3cccc4[nH]cc(c34)C[C@H]2N(CCc2ccc(OC)cc2)C1 [Compound 21] — which class?
interval 1

Form: Item = CCCN1C[C@H](C(=O)N[C@H](C)CC)C=C2c3cccc4[nH]cc(c34)C[C@H]21 [Compound 3] ; Class = ?
interval 3

Bin this entry: CC[C@@H](C)NC(=O)[C@@H]1C=C2c3cccc4[nH]cc(c34)C[C@H]2N(CC)C1 [Compound 5]
interval 3

For CCN(CC)C(=O)[C@@H]1C=C2c3cccc4[nH]cc(c34)C[C@H]2N(Cc2ccccc2O)C1 [Compound 16] , which 5-HT2B % Act @ Max Dose bin applies?
interval 2

Input C=CCN1C[C@@H](C(=O)N[C@H](C)CC)C=C2c3cccc4[nH]cc(c34)C[C@H]21 [Compound 8a] ; output its category
interval 2

For this compound, which bin applies? CC[C@@H](C)NC(=O)[C@H]1C=C2c3cccc4[nH]cc(c34)C[C@H]2N(CC)C1 [Compound 5a]
interval 3

Which bin should I file CCC[C@@H](C)NC(=O)[C@@H]1C=C2c3cccc4[nH]cc(c34)C[C@H]2N(C)C1 [Int17] under?
interval 2

Lab log: CCN(CC)C(=O)[C@@H]1C=C2c3cccc4[nH]cc(c34)C[C@H]2N(Cc2ccccn2)C1 [Compound 22] — assign 5-HT2B % Act @ Max Dose category
interval 1

Band of CCC[C@@H](C)NC(=O)[C@H]1C=C2c3cccc4[nH]cc(c34)C[C@H]2N(C)C1 [Int17a] ?
interval 1

# classify by 5-HT2B % Act @ Max Dose band: CCCN1C[C@@H](C(=O)N[C@H](C)CC)C=C2c3cccc4[nH]cc(c34)C[C@H]21 [Compound 3a]
interval 3

Please let me know in which category the item CCN(CC)C(=O)[C@@H]1C=C2c3cccc4[nH]cc(c34)C[C@H]2N(C)C1 [LSD, lysergic acid diethylamide, reference compound] belongs.
interval 2

Class label required: CC[C@@H](C)NC(=O)[C@H]1C=C2c3cccc4[nH]cc(c34)C[C@H]2N(C)C1 [Int8a]
interval 1

Exercise: read the entry CCCN1C[C@H](C(=O)N(CC)CC)C=C2c3cccc4[nH]cc(c34)C[C@H]21 [Compound 1] and state which class it falls under.
interval 3

Looking at CCN(CC)C(=O)[C@@H]1C=C2c3cccc4[nH]cc(c34)C[C@H]2N(CCc2ccccn2)C1 [Compound 23] , which class would you pick?
interval 2

Using the reported 5-HT2B % Act @ Max Dose, which band applies to CCN(CC)C(=O)[C@@H]1C=C2c3cccc4[nH]cc(c34)C[C@H]2N(Cc2ccc(OC)cc2)C1 [Compound 19] ?
interval 1

Band for the recorded 5-HT2B % Act @ Max Dose of CCCN1C[C@H](C(=O)NC(CC)CC)C=C2c3cccc4[nH]cc(c34)C[C@H]21 [Compound 6] ?
interval 3

Record CCN(CC)C(=O)[C@@H]1C=C2c3cccc4[nH]cc(c34)C[C@H]2N(CCC(F)(F)F)C1 [Compound 12] — which class?
interval 2

Band assignment needed for CCN(CC)C(=O)[C@@H]1C=C2c3cccc4[nH]cc(c34)C[C@H]2N(CC2CC2)C1 [Compound 13] please.
interval 3

Would you mind sorting CC[C@@H](C)NC(=O)[C@@H]1C=C2c3cccc4[nH]cc(c34)C[C@H]2N(C)C1 [Int8] into the appropriate category?
interval 2

Looking at CCC(CC)NC(=O)[C@H]1C=C2c3cccc4[nH]cc(c34)C[C@H]2N(C)C1 [Int14a] , which class would you pick?
interval 1
